- Tested on: NCI/ADR-RES ovarian
- Test method notes: NCI-60 one-dose screen, 48 h (100 = growth as untreated, 0 = no growth, -100 = all killed)
- Run parameters: 10 µM unless noted
Compounds without any hit were thinned out: in the full panel of roughly 83,000, 20% have a hit.
# thresholds on growth define classes: lowest: < 60%; middle: ≥ 60% and < 90%; highest: ≥ 90%

*Q* Which growth category applies to "CCN(CC)CCN(CCN(CC)CC)c1ccccc1" here?
*A* highest

*Q* Which growth category applies to "Cn1cc(-c2ccc3cc(-c4ccc(CC(=O)Nc5cc(C(C)(C)C)on5)cc4)cnc3c2)cn1" here?
*A* lowest

*Q* Which growth category applies to CCN1C(=O)N(CC)C2C1NN=c1s/c(=C3\C(=O)N(CCc4ccccc4)c4ccccc43)c(=O)n12 (centres undefined) here?
*A* lowest

*Q* Which growth category applies to Cc1c(N2CN3C[C@H](C)N4CN(c5c(C)n(C)n(-c6ccccc6)c5=O)CN5C[C@@H](C)N(C2)C3C54)c(=O)n(-c2ccccc2)n1C (some centres undefined) here?
*A* highest

*Q* Which growth category applies to "C=C1C(=O)O[C@H]2[C@H]1CC/C(COC(=O)NCCCCCCCCNC(=O)OC/C1=C/CC[C@@]3(C)O[C@H]3[C@H]3OC(=O)C(=C)[C@@H]3CC1)=C\CC[C@@]1(C)O[C@@H]21" here?
*A* lowest

*Q* Which growth category applies to "COP(=O)(OC)c1nnn(-c2cccc([N+](=O)[O-])c2)c1C" here?
*A* highest

*Q* Which growth category applies to CCCCCCC(CCCC)COC(=O)c1ccc(Cl)cc1 (centres undefined) here?
*A* highest

*Q* Which growth category applies to "COc1ccc2c(c1)c(-c1ccc(-c3cn(C)c4ccc(OC)cc34)[nH]1)cn2C" here?
*A* lowest

*Q* Which growth category applies to "CC/C=C1/C(=O)C=C[C@@H]1C/C=C\CCCC(=O)OC" here?
*A* lowest

*Q* Which growth category applies to "COC(=O)Cc1nc(C#N)c(N(C)C)o1" here?
*A* highest

*Q* Which growth category applies to "Cc1cc(C(=O)Nc2cc(Nc3ncccc3-c3ncnc4nc[nH]c34)ccc2F)cc(C(F)(F)F)c1" here?
*A* lowest

*Q* Which growth category applies to "CN1CCN(Cc2ccc(NC(=O)c3cncc(C#Cc4cncc5[nH]ncc45)c3)cc2C(F)(F)F)CC1" here?
*A* lowest

*Q* Which growth category applies to "Cc1ccc(Nc2nc(-c3ccc(F)cc3)c(C#N)c(=O)n2C)cc1" here?
*A* middle

*Q* Which growth category applies to "O=C1/C(=C/c2ccccc2[N+](=O)[O-])COc2ccc(O)cc21" here?
*A* lowest

*Q* Which growth category applies to CC12CCC(/C(=C/NNc3ccc([N+](=O)[O-])cc3[N+](=O)[O-])C1=O)C2(C)C (centres undefined) here?
*A* middle

*Q* Which growth category applies to "CCCCCCCCn1ccc2cc(NC(=O)Cn3cc(CN4CCCCCC4)nn3)ccc21" here?
*A* lowest

*Q* Which growth category applies to "CC(C)(C)c1cc(C=Nc2cccc(C(F)(F)F)c2)c(O)c(C(C)(C)C)c1" here?
*A* highest

*Q* Which growth category applies to "Cn1cc(/C=C2/C(=O)Nc3ccccc32)c2ccccc21" here?
*A* middle

* * *

- Tested on: HCC-2998 colon
- Test method notes: NCI-60 one-dose screen, 48 h (100 = growth as untreated, 0 = no growth, -100 = all killed)
- Run parameters: 10 µM unless noted
About 83,000 compounds went through this panel and 20% of them were active in at least one assay; those are over-represented in the sample as a whole.
Parameter: growth (%)
Hi! Could you send only the number? It should be in %, unit omitted.

*Q* # get_value(readout= growth, system= HCC-2998 colon) for "CCN(CC)c1ccc(/C=N/NC(=O)c2ccc(Nc3ccnc(C(F)(F)F)c3)cc2)c(O)c1"
*A* 38.3

*Q* # get_value(readout= growth, system= HCC-2998 colon) for "O=C(CCCCNC(=O)c1cc(=O)c(O)co1)Nc1ccccc1"
*A* 110

*Q* # get_value(readout= growth, system= HCC-2998 colon) for COc1ccc(NC(=O)c2sc3nc(C)c(C(O)c4ccccc4)cc3c2N)cc1 (stereo not given)
*A* 19.4

*Q* # get_value(readout= growth, system= HCC-2998 colon) for "CC(=O)Nc1c(Cl)cc(Cl)c2c1Cc1cc([N+](=O)[O-])ccc1-2"
*A* 94.3

*Q* # get_value(readout= growth, system= HCC-2998 colon) for "O=C1/C=C/[C@@H](O)[C@@H]2C[C@@H](O)C[C@H]2/C=C/CCC[C@H](CCOCc2ccccc2)O1"
*A* 3.47

* * *

- Tested on: HCT-15 colon
- Test method notes: NCI-60 one-dose screen, 48 h (100 = growth as untreated, 0 = no growth, -100 = all killed)
- Run parameters: 10 µM unless noted
About 83,000 compounds went through this panel and 20% of them were active in at least one assay; those are over-represented in the sample as a whole.
Doc: threshold 60% (exclusive). Items with growth beneath it return Condition met; others return Condition not met.

*Q* Answer whether the molecule "O=S(=O)(c1ccccc1)N1CCCN(c2nc(-c3ccccc3)nc3nc(-c4ccccc4)oc23)CC1" has growth strictly less than 60%
*A* Condition not met

*Q* Answer whether the molecule "Cc1ccc(-c2csc(NC(=O)N3CCN(c4cc5c(cc4F)c(=O)c(C(=O)O)cn5C4CC4)CC3)n2)cc1" has growth strictly less than 60%
*A* Condition met

*Q* Answer whether the molecule "CCn1cc(C2=C(c3cn(C)c4ncccc34)C(=O)NC2=O)c2cccnc21" has growth strictly less than 60%
*A* Condition not met

*Q* Answer whether the molecule "Cc1ccc(C)c(-n2c(-c3ccc(Br)cc3)csc2=NC(=O)c2ccccc2F)c1" has growth strictly less than 60%
*A* Condition met

*Q* Answer whether the molecule "CS(=O)(=O)Nc1cc(-c2ccc3ncnc(Nc4ccc5c(cnn5Cc5cccnc5)c4)c3c2)cnc1Cl" has growth strictly less than 60%
*A* Condition not met

*Q* Answer whether the molecule "COc1ccc(OC)c(-c2cn3nc(-c4c[nH]c5ccc(Br)cc45)sc3n2)c1" has growth strictly less than 60%
*A* Condition met

*Q* Answer whether the molecule "O=C1/C(=C/c2ccccc2[N+](=O)[O-])COc2ccc(O)cc21" has growth strictly less than 60%
*A* Condition met

*Q* Answer whether the molecule "Cn1cc(-c2csc(-c3cn(C(=O)OC(C)(C)C)c4ccccc34)n2)c2ccnc(Cl)c21" has growth strictly less than 60%
*A* Condition met

*Q* Answer whether the molecule "Cc1ccc2[nH]c(-c3ccc(S(C)(=O)=O)cc3)c(/C=N/N=C(N)N)c2c1" has growth strictly less than 60%
*A* Condition met

*Q* Answer whether the molecule "Cn1c(=O)c2c(c3ccccc31)OC(N)=C(C#N)C21C(=O)c2ccccc2C1=O" has growth strictly less than 60%
*A* Condition not met

*Q* Answer whether the molecule C=CC(C)(O)CC/C=C(\CO)C(=O)OC1C(C)OC(O[C@](C)(C=C)CC/C=C(\CO)C(=O)O[C@H]2C[C@@]3(C(=O)OC4OC(CO)C(O)C(O)C4OC4OC(C)C(OC5OC(CO)C(O)C5O)C(OC5OC(CO)C(O)C(O)C5O)C4O)C(CC2(C)C)C2=CCC4[C@@]5(C)CC[C@H](OC6OC(COC7OC(C)C(O)C(O)C7OC7OCC(O)C(O)C7O)C(O)C(O)C6NC(C)=O)C(C)(C)C5CC[C@@]4(C)[C@]2(C)C[C@H]3O)C(O)C1O (some centres undefined) has growth strictly less than 60%
*A* Condition not met

*Q* Answer whether the molecule "COc1cc(/C=C/c2cc(/C=C/c3ccc(O)c(OC)c3)n(C(=O)Nc3ccc(F)cc3)n2)ccc1O" has growth strictly less than 60%
*A* Condition met

*Q* Answer whether the molecule "CC[C@H](CC[C@@H](C)[C@H]1CC[C@H]2[C@@H]3CC[C@@H]4CC(=O)/C(=C\c5ccncc5)C[C@]4(C)[C@H]3CC[C@]12C)C(C)C" has growth strictly less than 60%
*A* Condition not met

*Q* Answer whether the molecule "CCn1cc(CNc2ccc(C(=O)Nc3cc4cc(OC)c(OC)cc4c(C)n3)cc2)c(C)n1" has growth strictly less than 60%
*A* Condition met

*Q* Answer whether the molecule "C=C1C(=O)O[C@H]2[C@H]1CC/C(COC(=O)/C=C\C(=O)NCc1ccc(Cn3c(=O)sn(-c4ccccc4)c3=O)cc1)=C\CC[C@@]1(C)O[C@@H]21" has growth strictly less than 60%
*A* Condition met

*Q* Answer whether the molecule "COc1ccc2nc3ccccc3c(NCc3ccccc3)c2c1" has growth strictly less than 60%
*A* Condition met

*Q* Answer whether the molecule "COc1ncc2cc1NS(=O)(=O)c1cccc(c1)C(=O)NCC1=CC=C(S1)c1ncnc3c1SC2=C3C" has growth strictly less than 60%
*A* Condition met

*Q* Answer whether the molecule "Cn1cc(-c2nonc2-c2c[nH]c3ccccc23)c2ccccc21" has growth strictly less than 60%
*A* Condition met

*Q* Answer whether the molecule "CCN=C1C=CC(=C(c2ccc(N(C)C)cc2)c2ccc(N(C)C)cc2)c2ccccc21" has growth strictly less than 60%
*A* Condition met

*Q* Answer whether the molecule "CNC(=O)c1cc(Oc2ccc3nc(NC(=O)Nc4ccc(Cl)c(Cl)c4)sc3c2)ccn1" has growth strictly less than 60%
*A* Condition met

*Q* Answer whether the molecule "C#Cc1cccc(Nc2nc3ccc([N+](=O)[O-])cc3nc2Nc2cccc(C#C)c2)c1" has growth strictly less than 60%
*A* Condition met

*Q* Answer whether the molecule "CCOC(=O)c1c(C)nc2ccccc2c1/C=C/c1ccc(OC)cc1" has growth strictly less than 60%
*A* Condition not met

*Q* Answer whether the molecule "C/C(C=O)=C\c1ccc2c(c1)OCO2" has growth strictly less than 60%
*A* Condition not met

*Q* Answer whether the molecule "O=C1CCCc2nc3sc4c(=O)n(-c5ccccc5Cl)nnc4c3cc21" has growth strictly less than 60%
*A* Condition not met

*Q* Answer whether the molecule "COc1ccc2cc(Cn3cc[n+](Cc4ccc5ccccc5c4)c3)ccc2c1" has growth strictly less than 60%
*A* Condition not met

*Q* Answer whether the molecule "O=C(N/N=C/c1ccc(O)cc1O)c1ccc(Nc2ccnc(C(F)(F)F)c2)cc1" has growth strictly less than 60%
*A* Condition met

*Q* Answer whether the molecule "CCOC(=O)n1cc(-c2nonc2-c2cn(C)c3ccccc23)c2ccccc21" has growth strictly less than 60%
*A* Condition met

*Q* Answer whether the molecule Cc1ccc(-c2cc(C(=O)N3N=C(c4ccc(N)cc4)CC3c3ccc(Cl)cc3)c3ccccc3n2)cc1 (centres undefined) has growth strictly less than 60%
*A* Condition met

*Q* Answer whether the molecule "N=c1sc(Cc2cc(Cl)ccc2Cl)cn1CC(=O)c1ccccc1" has growth strictly less than 60%
*A* Condition met

*Q* Answer whether the molecule "CCN(C(=O)N1CCN(c2cc3c(cc2F)c(=O)c(C(=O)O)cn3C2CC2)CC1)c1nc(-c2ccc(C)cc2)cs1" has growth strictly less than 60%
*A* Condition met

*Q* Answer whether the molecule "CN1CCN(Cc2ccc(NC(=O)c3cncc(C#Cc4cncc5ncccc45)c3)cc2C(F)(F)F)CC1" has growth strictly less than 60%
*A* Condition met

*Q* Answer whether the molecule "Cc1nn(-c2ccccc2)c(/N=C/N(C)C)c1/C=C/C(=O)c1ccc(Cl)cc1" has growth strictly less than 60%
*A* Condition not met

Source: PubChem BioAssay (NCI)
